GI50 reference
Test system: EKVX
Assay: NCI tumour cell line growth inhibition, 48 h
The source made the active and inactive calls. Rule as the data show it: active = GI50 up to about 1.1 µM and inactive = higher.

{"Compound": "COC(=O)[C@@H]1C=C[C@H](OC2OC(COC(C)=O)C(OC(C)=O)C(OC(C)=O)C2OC(C)=O)n2c(=O)c3ccccc3c(=O)n21 (some centres undefined)", "GI50": "16.5 µM (inactive)"}

Supply GI50 value. Item: COc1ccc(-n2sc3ncc(-c4ccccc4)cc3c2=O)cc1
69.5 µM (inactive)

Answer with the recorded GI50 of COc1ccc(NC(=O)CC(=O)n2nc(-c3ccccc3)c(/N=N/c3ccccc3C(=O)O)c2-c2ccccc2)cc1 only.
34.6 µM (inactive)

# return recorded GI50 for entry CCOC(=O)C/C(=N\c1cc(C)on1)N(CC)CC.[O-][Cl+3]([O-])([O-])O
> 100 µM (inactive)

---

Overview of recorded GI50 for various compounds
System: RXF 631
Experiment: NCI tumour cell line growth inhibition, 48 h
Activity calls are given as the source filed them. Cut-off read from the data, not from the text of the source: active = GI50 up to about 1.1 µM and inactive = higher.

{"Compound": "CC(C)(C)[Si](C)(C)OCCCC#CCO", "GI50": "> 100 µM (inactive)"}
{"Compound": "C/C(=N\\NC(=[Se])N(C)C)c1ccccn1", "GI50": "< 0.01 µM (active)"}
{"Compound": "NC(=O)NC12CC3CC(CC(F)(C3)C1)C2", "GI50": "> 100 µM (inactive)"}
{"Compound": "Nc1nc(CC2(O)CCCCC2)cc(-c2ccccc2)n1", "GI50": "34.4 µM (inactive)"}
{"Compound": "Cc1ccc(SSc2ccc(C)cc2C(=O)O)c(C(=O)O)c1", "GI50": "> 100 µM (inactive)"}

Retrieve GI50 measured for Cc1ccccc1/C=N/C12CC3CC(CC(C3)C1)C2 and print it.
> 100 µM (inactive)

Read the entry CC(=O)CC(=O)CCCC(=O)Nc1ccc(Cl)cc1C and write its reported GI50.
> 100 µM (inactive)

Quick one: give measured GI50 for COc1cccc2c1[C@H]1CO[C@H]3C4C[C@H](C(=O)O)C([C@@H](C2)N13)N4C (stereo partly drawn)
> 10 µM (inactive)

Indicate its recorded GI50; the compound in question is Cc1cc(Cl)ccc1N1C(=O)C(=O)C(c2nc3ccccc3s2)/C(=N\NC(=O)c2ccccc2O)C1=O (stereo not drawn)
> 100 µM (inactive)

Return reported GI50. Input compound: COc1ccc(Cc2c(=O)[nH]nc3ccccc23)cc1
> 100 µM (inactive)

State, in one line, measured GI50 of CN(C)CC(C)(C)C(=O)/C=C/c1ccc(/C=C/C(=O)C(C)(C)CN(C)C)cc1
2 µM (inactive)

Recall and state the measured GI50 for CCn1c(O)c(C(=O)Nc2cccs2)c(=O)n(CC)c1=S .
19 µM (inactive)

Look up and report measured GI50 for this entry: COc1ccc(/C(Cl)=C(\C=O)c2ccc([N+](=O)[O-])cc2)cc1OC
12.4 µM (inactive)

---

Each entry below carries its recorded GI50.
System: OVCAR-8
Test: NCI tumour cell line growth inhibition, 48 h
Calls of active or inactive are those of the source. No stated cut-off is given here; in the data, active = GI50 up to about 1.1 µM and inactive = higher.

{"Molecule": "CC(=O)OCC1OC(SC2=N/C(=C\\c3cc4c(=O)c5ccccc5sc4s3)C(=O)N2c2ccccc2)C(OC(C)=O)C(OC(C)=O)C1OC(C)=O (stereo unspecified)", "Measurement": "> 100 µM (inactive)"}
{"Molecule": "COC(=O)[C@H]1[C@H](OC(=O)[C@@H](OC)c2ccccc2)ON2CC[C@@H](OC(=O)c3ccccc3)[C@H]12", "Measurement": "61.4 µM (inactive)"}
{"Molecule": "CC1CC(C)CC(NC2=NCCO2)C1 (stereo unspecified)", "Measurement": "> 100 µM (inactive)"}
{"Molecule": "CC(C)C(=O)OCC1CCCN2CCCCC12 (stereo unspecified)", "Measurement": "> 100 µM (inactive)"}
{"Molecule": "CCSCN(C)c1nc(N(C)C)nc(N(C)C)n1", "Measurement": "81.5 µM (inactive)"}

Fill in reported GI50 for this entry: O=S(=O)(O)CS(=O)(=O)OCCCl
> 100 µM (inactive)

Give GI50 for the following molecule: CSCCC(NOC(=O)Cc1ccccc1)P(=O)(O)c1ccccc1 (stereo unspecified)
> 100 µM (inactive)

Could you please provide reported GI50 for Cc1nc2ccc(N)cc2nc1O ? Thanks!
> 100 µM (inactive)

---

System: MDA-MB-435
Experiment: NCI tumour cell line growth inhibition, 48 h
Activity calls are given as the source filed them. Cut-off read from the data, not from the text of the source: active = GI50 up to about 1.1 µM and inactive = higher.
Measurement label: GI50

Example results:
{"Molecule": "CC(C)(CO)NC(=O)c1cccs1", "Measurement": "> 100 µM (inactive)"}
{"Molecule": "O=c1oc2cccnc2n1CCN1CCN(c2ccc(Oc3ccccc3)cc2)CC1", "Measurement": "63.2 µM (inactive)"}

Report GI50 for CSCCC(NCc1c(O)ccc2c(-c3ccccc3)cc(=O)oc12)C(=O)O (centres undefined)
> 100 µM (inactive)

Supply reported GI50 belonging to this molecule: O=C1OC(C2=CC(=O)c3ccccc3C2=O)C(Cl)=C1Cl (centres undefined)
35.6 µM (inactive)

State its GI50: COc1ccc2c(c1)[C@@]13CCN4CC5=CCO[C@H]6CC(=O)N2[C@H]1[C@H]6[C@H]5C[C@H]43
> 100 µM (inactive)

---

Test system: UACC-62
Experiment: NCI tumour cell line growth inhibition, 48 h
The source made the active and inactive calls. Rule as the data show it: active = GI50 up to about 1.1 µM and inactive = higher.
Let's look at some compounds and their measured GI50.

Worked examples follow.
{"Compound": "Cc1cc(C)nc(NS(=O)(=O)c2ccc(NNc3c4ccccc4nc4c(C(=O)Nc5ccc(S(N)(=O)=O)cc5)cccc34)cc2)n1", "Measurement label": "GI50", "Measurement": "27.7 µM (inactive)"}
{"Compound": "C[C@@H](c1ccccc1)N1C[C@@H](c2ccc3c(c2)OCO3)[C@@H]2C(=O)CCC[C@@H]21", "Measurement label": "GI50", "Measurement": "25.5 µM (inactive)"}
{"Compound": "CCCCN(CCCC)CCC(O)c1cc(-c2ccc(C(F)(F)F)cc2)nc(-c2ccc(C(F)(F)F)cc2)c1 (centres undefined)", "Measurement label": "GI50", "Measurement": "> 100 µM (inactive)"}

Here is the next item to consider.
Identify the reported GI50 for the following entry. O=c1cc(N2CCN(c3cc(=O)n4ccccc4n3)CC2)oc2ccccc12
> 100 µM (inactive)

---

System: MOLT-4
Assay: NCI tumour cell line growth inhibition, 48 h
The source made the active and inactive calls. Cut-off read from the data, not from the text of the source: active = GI50 up to about 1.1 µM and inactive = higher. Non-standard residues stand in square brackets, D forms with d. Residues, ends and D or L forms follow the SMILES beside them. ξ: configuration not given here. *: point of attachment. ξF = NC(Cc1ccccc1)C(=O)O; Cbz = O=C(OCc1ccccc1)*
Select the correct class. Options are active, inactive and nothing else.

Worked examples follow.
{"Compound": "CCc1nc(N)nc(N)c1-c1ccc(Cc2ccccc2)c([N+](=O)[O-])c1", "Assigned category": "active"}
{"Compound": "CCN(CC)CC(C)C(=O)/C=C/c1ccc(C)cc1 (stereo unspecified)", "Assigned category": "inactive"}
{"Compound": "N=C1/C(=C/c2ccco2)C(=O)N=C2SC=NN12", "Assigned category": "inactive"}
{"Compound": "c1ccc2c(c1)c(N1CCCCC1)cc1nc3c(cc(N4CCCCC4)c4ccccc43)nc12", "Assigned category": "inactive"}
{"Compound": "CCOC(=O)Nc1nc(-c2ccccc2)c(C)s1", "Assigned category": "inactive"}
{"Compound": "Cc1cc(O)c2c3c(ccc2c1)C(=O)c1c(O)cccc1C3=O", "Assigned category": "inactive"}

Answer briefly: the call reported for CN(C)/C=N/S(=O)(=O)c1nn2c(C=O)c(-c3ccc(Cl)cc3)nc2s1 in this assay.
active

Please indicate how the test categorized CN(C)CCOC1(Cc2ccc(Cl)cc2Cl)CCC(C(C)(C)C)CC1 (stereo unspecified) .
inactive

Each compound tested received a call. Report the one for CCOC(=O)CNC(=O)C(Cc1ccccc1)NC(=O)OCc1ccccc1 (stereo unspecified) (Cbz-[ξF]-Gly-OEt) .
inactive

So what was the verdict on O=C(COc1ccc(OCC(=O)N2C(=O)CN(c3ccc(Cl)cc3)C2=S)cc1)N1C(=O)CN(c2ccc(Cl)cc2)C1=S in this test?
inactive

Lab log entry: COc1cc2c(cc1OC)C(=O)/C(=C/c1ccccc1)CC2 — outcome as called in the assay?
inactive

Can you look up the reported call for Nc1nc(NNc2ccccc2F)cc(=O)[nH]1 for me?
inactive

Which outcome was assigned to CCCCN(CCCC)CCC(O)c1cc(-c2ccc(C(F)(F)F)cc2)nc(-c2ccc(C(F)(F)F)cc2)c1 (stereo unspecified) in this test?
inactive

Fill in: this test's call for Nc1nc(CC2(O)CCCCC2)cc(-c2ccccc2)n1 is ___
inactive

I would be grateful if you could indicate the recorded call for CCOC(=O)C/C(=N\c1cc(C)on1)N(CC)CC.[O-][Cl+3]([O-])([O-])O .
inactive

Hi, do you know how C/C=C/[C@H](O[Si](C)(C)C(C)(C)C)[C@@H](O)/C=C/C(=O)OCC came out in this test?
inactive
